Hello, the source for this data is paper PMC5471521, in case you need it.

- experiment: PK analysis in male Sprague-Dawley rats
- Format: in vivo
- condition: male, Sprague-Dawley, whole blood, iv; rat, i.v. 2 mg/kg, hydrochloride salt forms; read-out: Blood CLtotal
# clearance per entry

# compound-smiles, clearance
data = [
    ("O=C1NCc2cc(OCCNC[C@H](O)COc3ccc4c(c3)OC[C@@H](COCC3CC3)O4)ccc21", "39 mL/min/kg"),
]

Read the next record carefully.
Exercise: Fill blank: measured clearance of the molecule NC(=O)c1ccc(OCCNC[C@H](O)COc2ccc3c(c2)OC[C@@H](COCC2CC2)O3)cc1 is ____.
Solution: 51 mL/min/kg

* * *

# pKd per entry
- measured-target: native β2-AR in human bronchial smooth muscle cells (Homo sapiens)
- Construct: human bronchial smooth muscle cells (that natively express β2-AR); host or cells: human bronchial smooth muscle cells
- Sequence (P07550 whole entry): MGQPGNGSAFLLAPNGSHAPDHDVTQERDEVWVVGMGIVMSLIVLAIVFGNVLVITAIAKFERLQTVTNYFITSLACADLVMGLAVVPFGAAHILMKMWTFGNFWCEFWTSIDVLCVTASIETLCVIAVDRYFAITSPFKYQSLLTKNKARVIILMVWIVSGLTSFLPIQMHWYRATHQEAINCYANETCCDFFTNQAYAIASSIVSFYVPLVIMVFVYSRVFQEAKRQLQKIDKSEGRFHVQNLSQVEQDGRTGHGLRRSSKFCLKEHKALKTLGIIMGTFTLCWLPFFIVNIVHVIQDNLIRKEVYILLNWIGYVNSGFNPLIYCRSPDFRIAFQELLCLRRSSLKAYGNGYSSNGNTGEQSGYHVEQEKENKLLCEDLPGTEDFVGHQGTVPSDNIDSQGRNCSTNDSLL
- experiment: Antagonism of cimaterol-induced 3H-cAMP accumulation in human bronchial smooth muscle cells
- Type: cell-based
- condition: cimaterol agonist, mean ± SEM
// pKd is dimensionless: -log10 of concentration (M)

# compound, measured-parameter, obs-value
data = [
    ("NC(=O)c1ccc(OCCNC[C@H](O)COc2ccc3c(c2)OC[C@@H](COCC2CC2)O3)cc1 [NDD-713]", "pKd", 5.47),
]

Read the next record carefully.
Exercise: Fill blank: measured pKd of the compound O=C1NCc2cc(OCCNC[C@H](O)COc3ccc4c(c3)OC[C@@H](COCC3CC3)O4)ccc21 [NDD-825] is ____.
Solution: 5.87

* * *

pIC50: −log10 of the molar value.
Quick note: these are pIC50 numbers for system: CYP2C9 (Homo sapiens)
Sequence (P11712 whole entry): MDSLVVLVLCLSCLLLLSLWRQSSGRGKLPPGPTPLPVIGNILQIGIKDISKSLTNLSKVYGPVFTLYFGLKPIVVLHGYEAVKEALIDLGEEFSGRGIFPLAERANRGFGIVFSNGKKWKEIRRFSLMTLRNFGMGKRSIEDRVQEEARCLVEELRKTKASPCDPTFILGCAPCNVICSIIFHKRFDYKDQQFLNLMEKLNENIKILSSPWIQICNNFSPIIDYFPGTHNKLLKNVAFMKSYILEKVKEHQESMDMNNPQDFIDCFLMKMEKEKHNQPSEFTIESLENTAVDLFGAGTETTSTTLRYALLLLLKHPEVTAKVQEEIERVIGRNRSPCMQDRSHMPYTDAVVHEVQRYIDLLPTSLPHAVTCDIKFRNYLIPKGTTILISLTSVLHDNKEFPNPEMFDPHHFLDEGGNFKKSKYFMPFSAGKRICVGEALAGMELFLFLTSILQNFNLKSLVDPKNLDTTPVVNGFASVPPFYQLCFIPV

# compound-smiles, measured-target, measured-parameter, obs-value
records = [
    ("NC(=O)c1ccc(OCCNC[C@H](O)COc2ccc3c(c2)OC[C@@H](COCC2CC2)O3)cc1", "CYP2C9 (Homo sapiens)", "pIC50", "< 4.70"),
]

Read the next record carefully.
Exercise: Hi! What's the reported pIC50 for O=C1NCc2cc(OCCNC[C@H](O)COc3ccc4c(c3)OC[C@@H](COCC3CC3)O4)ccc21 on CYP2C9 (Homo sapiens)?
Solution: < 4.70

* * *

- experiment: Metabolic stability, rat hepatocytes
- Assay type: in vitro ADME
- condition: hepatocytes
measured-parameter: hepatocyte CLint (µL/min/1e6 cells)
Unit µL/min/1e6 cells implied. Number only.

Exercise: Fill blank: measured hepatocyte CLint of the molecule O=C1NCc2cc(OCCNC[C@H](O)COc3ccc4c(c3)OC[C@@H](COCC3CC3)O4)ccc21 is ____.
Solution: 5

* * *

- experiment: PK analysis in male Sprague-Dawley rats
- Assay type: in vivo
- condition: male, Sprague-Dawley, plasma, po; rat, p.o. 2 mg/kg, hydrochloride salt forms
# Tmax per entry
Unit min implied. Number only.

# compound-smiles, measured-parameter, obs-value
rows = [
    ("O=C1NCc2cc(OCCNC[C@H](O)COc3ccc4c(c3)OC[C@@H](COCC3CC3)O4)ccc21", "Tmax", 83),
]

Exercise: Fill blank: measured Tmax of the molecule NC(=O)c1ccc(OCCNC[C@H](O)COc2ccc3c(c2)OC[C@@H](COCC2CC2)O3)cc1 is ____.
Solution: 30

* * *

- experiment: Protein binding by ultracentrifugation, human plasma
- Type: in vitro ADME
- condition: read-out: fu human plasma
measured-parameter: fraction unbound at 1 h, 1 µM
// print number alone

# compound, fraction unbound at 1 h, 1 µM
rows = [
    ("O=C1NCc2cc(OCCNC[C@H](O)COc3ccc4c(c3)OC[C@@H](COCC3CC3)O4)ccc21 [NDD-825]", 0.01),
]

Exercise: Fill blank: measured fraction unbound at 1 h, 1 µM of the compound NC(=O)c1ccc(OCCNC[C@H](O)COc2ccc3c(c2)OC[C@@H](COCC2CC2)O3)cc1 [NDD-713] is ____.
Solution: 0.15

* * *

- experiment: PK analysis in male Sprague-Dawley rats
- Type: in vivo
- condition: male, Sprague-Dawley, rat, plasma, po, 2 mg/kg
# bioavailability per entry
Unit % implied. Number only.

# compound-smiles, bioavailability [%]
measured = [
    ("O=C1NCc2cc(OCCNC[C@H](O)COc3ccc4c(c3)OC[C@@H](COCC3CC3)O4)ccc21", 32),
]

Read the next record carefully.
Exercise: Fill blank: measured bioavailability of the compound NC(=O)c1ccc(OCCNC[C@H](O)COc2ccc3c(c2)OC[C@@H](COCC2CC2)O3)cc1 is ____.
Solution: 50

* * *

- measured-target: CYP1A2 (Homo sapiens, UniProt P05177)
- Sequence (P05177 1-516): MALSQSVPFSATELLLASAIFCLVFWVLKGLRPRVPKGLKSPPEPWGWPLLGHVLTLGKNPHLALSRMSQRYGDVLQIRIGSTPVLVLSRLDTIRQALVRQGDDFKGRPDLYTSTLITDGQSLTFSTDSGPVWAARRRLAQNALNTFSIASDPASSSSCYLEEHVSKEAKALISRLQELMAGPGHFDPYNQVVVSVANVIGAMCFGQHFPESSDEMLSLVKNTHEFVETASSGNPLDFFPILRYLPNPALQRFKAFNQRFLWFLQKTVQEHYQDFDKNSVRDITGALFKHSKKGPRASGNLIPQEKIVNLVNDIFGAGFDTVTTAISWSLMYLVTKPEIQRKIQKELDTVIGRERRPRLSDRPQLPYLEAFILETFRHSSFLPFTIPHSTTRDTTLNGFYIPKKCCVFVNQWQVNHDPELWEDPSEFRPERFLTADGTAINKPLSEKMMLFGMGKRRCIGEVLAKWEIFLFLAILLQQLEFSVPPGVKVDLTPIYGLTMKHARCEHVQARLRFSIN
# IC50 per entry

# compound, measured-target, obs-value
data = [
    ("NC(=O)c1ccc(OCCNC[C@H](O)COc2ccc3c(c2)OC[C@@H](COCC2CC2)O3)cc1 [NDD-713]", "CYP1A2 (Homo sapiens, UniProt P05177)", "> 20 µM"),
]

Read the next record carefully.
Exercise: Hi! What's the reported IC50 for O=C1NCc2cc(OCCNC[C@H](O)COc3ccc4c(c3)OC[C@@H](COCC3CC3)O4)ccc21 [NDD-825] on CYP1A2 (Homo sapiens, UniProt P05177)?
Solution: > 20 µM

* * *

# solubility per entry
- experiment: Aqueous solubility by nephelometry
- Assay type: physicochemical
- condition: aqueous phosphate buffer, aqueous buffer, kinetic from dmso stock; pH 6.5, hydrochloride salts used; read-out: Aqueous solubility Saq at pH 6.5

# compound, solubility
data = [
    ("O=C1NCc2cc(OCCNC[C@H](O)COc3ccc4c(c3)OC[C@@H](COCC3CC3)O4)ccc21 [NDD-825]", "50 to 100 µg/mL"),
]

Exercise: Fill blank: measured solubility of the compound NC(=O)c1ccc(OCCNC[C@H](O)COc2ccc3c(c2)OC[C@@H](COCC2CC2)O3)cc1 [NDD-713] is ____.
Solution: 25 to 50 µg/mL

* * *

- experiment: Aqueous solubility by nephelometry
- Format: physicochemical
- condition: 0.01 M aqueous HCl, simulated gastric fluid, kinetic from dmso stock; pH 2.0, hydrochloride salts used; read-out: Aqueous solubility Saq at pH 2.0
measured-parameter: solubility

# compound-smiles, solubility
records = [
    ("O=C1NCc2cc(OCCNC[C@H](O)COc3ccc4c(c3)OC[C@@H](COCC3CC3)O4)ccc21", "> 100 µg/mL"),
]

Exercise: Fill blank: measured solubility of the molecule NC(=O)c1ccc(OCCNC[C@H](O)COc2ccc3c(c2)OC[C@@H](COCC2CC2)O3)cc1 is ____.
Solution: > 100 µg/mL

* * *

- experiment: Metabolic stability, human liver microsomes
- Format: in vitro ADME
- condition: in the presence of NAD+, NADPH, or in the absence of cofactors
# microsomal CLint per entry

# compound-smiles, microsomal CLint
measured = [
    ("O=C1NCc2cc(OCCNC[C@H](O)COc3ccc4c(c3)OC[C@@H](COCC3CC3)O4)ccc21", "< 0.16 µL/min/mg"),
]

Read the next record carefully.
Exercise: Fill blank: measured microsomal CLint of the compound NC(=O)c1ccc(OCCNC[C@H](O)COc2ccc3c(c2)OC[C@@H](COCC2CC2)O3)cc1 is ____.
Solution: < 0.16 µL/min/mg

* * *

- System: CYP3A4/5
- experiment: P450 inhibition in human liver microsomes
- Format: in vitro ADME
- condition: 0.25–20 μM, hydrochloride salts used
pIC50: −log10 of the molar value.
measured-parameter: pIC50

# compound, measured-target, pIC50
rows = [
    ("NC(=O)c1ccc(OCCNC[C@H](O)COc2ccc3c(c2)OC[C@@H](COCC2CC2)O3)cc1 [NDD-713]", "CYP3A4/5", "< 4.70"),
]

Exercise: Hi! What's the reported pIC50 for O=C1NCc2cc(OCCNC[C@H](O)COc3ccc4c(c3)OC[C@@H](COCC3CC3)O4)ccc21 [NDD-825] on CYP3A4/5?
Solution: < 4.70
